This section presents compounds with their documented pKD values.
ASSAY TARGET: ATP-binding cassette sub-family C member 9 (Rattus norvegicus) (UniProt Q63563)
Sequence (Q63563 whole entry): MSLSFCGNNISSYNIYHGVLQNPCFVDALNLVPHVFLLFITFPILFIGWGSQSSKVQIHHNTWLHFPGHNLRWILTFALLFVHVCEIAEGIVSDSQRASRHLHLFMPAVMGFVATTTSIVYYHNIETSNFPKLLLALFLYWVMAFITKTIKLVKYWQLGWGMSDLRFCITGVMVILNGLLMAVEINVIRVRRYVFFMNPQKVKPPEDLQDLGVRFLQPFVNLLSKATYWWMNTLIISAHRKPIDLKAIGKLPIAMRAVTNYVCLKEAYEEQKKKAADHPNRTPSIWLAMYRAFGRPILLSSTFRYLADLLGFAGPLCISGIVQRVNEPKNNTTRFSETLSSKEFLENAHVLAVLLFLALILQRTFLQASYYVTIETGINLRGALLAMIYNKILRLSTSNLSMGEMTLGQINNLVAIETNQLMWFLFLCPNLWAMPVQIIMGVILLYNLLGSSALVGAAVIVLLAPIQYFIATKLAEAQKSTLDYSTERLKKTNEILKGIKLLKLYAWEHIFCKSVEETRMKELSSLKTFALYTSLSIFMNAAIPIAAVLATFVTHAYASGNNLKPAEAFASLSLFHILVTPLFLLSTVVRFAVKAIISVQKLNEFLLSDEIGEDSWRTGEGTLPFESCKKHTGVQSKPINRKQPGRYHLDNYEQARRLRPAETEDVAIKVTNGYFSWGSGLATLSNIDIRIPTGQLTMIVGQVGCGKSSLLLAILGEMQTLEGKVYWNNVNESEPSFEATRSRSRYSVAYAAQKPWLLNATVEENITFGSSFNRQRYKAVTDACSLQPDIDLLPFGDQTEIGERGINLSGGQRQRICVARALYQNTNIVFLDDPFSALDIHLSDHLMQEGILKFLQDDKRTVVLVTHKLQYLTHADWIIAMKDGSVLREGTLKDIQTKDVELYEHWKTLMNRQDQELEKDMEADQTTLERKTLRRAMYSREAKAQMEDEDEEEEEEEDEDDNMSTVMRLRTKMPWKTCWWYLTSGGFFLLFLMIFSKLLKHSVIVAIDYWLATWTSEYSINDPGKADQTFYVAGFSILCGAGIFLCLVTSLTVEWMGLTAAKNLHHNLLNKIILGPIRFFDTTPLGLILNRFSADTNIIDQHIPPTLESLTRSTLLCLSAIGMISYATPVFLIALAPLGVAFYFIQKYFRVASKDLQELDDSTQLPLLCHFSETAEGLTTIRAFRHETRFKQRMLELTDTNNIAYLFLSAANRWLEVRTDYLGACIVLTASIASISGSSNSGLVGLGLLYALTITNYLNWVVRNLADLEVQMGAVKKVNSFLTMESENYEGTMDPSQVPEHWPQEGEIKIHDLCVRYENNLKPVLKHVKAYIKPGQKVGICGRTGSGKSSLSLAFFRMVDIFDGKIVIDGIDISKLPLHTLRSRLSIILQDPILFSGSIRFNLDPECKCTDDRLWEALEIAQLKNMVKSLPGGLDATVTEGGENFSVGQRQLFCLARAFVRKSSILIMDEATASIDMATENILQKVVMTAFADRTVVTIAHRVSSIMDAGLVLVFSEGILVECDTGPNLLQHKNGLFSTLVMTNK
RUN DESCRIPTION: Binding affinity towards Sulfonylurea receptor 2B (SUR2B) in cultured rat aortic smooth muscle cells (SMC)
REPORTED METRIC: pKD

In [3]: df
Out[3]:
                                smiles_code                              assay_target  reported_metric  endpoint_result
0  CC1(C)C=C(n2ccccc2=O)c2cc(S(=O)(=O)Nc3ccccc3)ccc2O1  ATP-binding cassette sub-family C member 9 (Rattus norvegicus) (UniProt Q63563)              pKD             8.05
1  CCNS(=O)(=O)c1ccc2c(c1)C(n1ccccc1=O)=CC(C)(C)O2  ATP-binding cassette sub-family C member 9 (Rattus norvegicus) (UniProt Q63563)              pKD                7
2  CC1(C)C=C(n2ccccc2=O)c2cc(S(=O)(=O)NCCO)ccc2O1  ATP-binding cassette sub-family C member 9 (Rattus norvegicus) (UniProt Q63563)              pKD             6.34
